Values from patent US20220339143A1

Test: Single dose PK in healthy subjects (Cohorts 1, 2, S1 and S2), plasma
Assay type: in vivo, human
Settings: human, plasma, iv, 134.4 mg, 134.4 mg single IV infusion, healthy subjects; read-out: tmax Median
experimental_endpoint: Tmax (h)
Numbers only, in h.

Problem: Give reported Tmax value for COC(=O)N1CCC[C@H](NS(C)(=O)=O)[C@@H]1CO[C@H]1CC[C@@H](c2ccccc2)CC1 [Compound A]
Result: 6.5

----------
Test: Single dose PK in healthy subjects (Cohorts 1, 2, S1 and S2), plasma
Type: in vivo, human
Conditions: human, plasma, iv, 7 mg, 7 mg single IV infusion, healthy subjects; read-out: tmax Mean
experimental_endpoint: Tmax (h)
Answers are plain numbers, in h.

Problem: Tell me measured Tmax for `COC(=O)N1CCC[C@H](NS(C)(=O)=O)[C@@H]1CO[C@H]1CC[C@@H](c2ccccc2)CC1` please.
Result: 3
